So I've got a bunch of compounds here, and I need their GI50 values.
System: HCC-2998 colon
Experiment: NCI tumour cell line growth inhibition, 48 h

Field: example entries. Status: answers known.
[
  {
    "STRUCTURE_NOTATION": "CC(=O)O[C@H]1CC[C@@]2(C)C(=CC[C@H]3[C@@H]4C/C(=C\\c5cccc(OCCN6CCOCC6)c5)[C@H](OC(C)=O)[C@@]4(C)CC[C@@H]32)C1",
    "GI50": "5.32 µM"
  },
  {
    "STRUCTURE_NOTATION": "NNc1cccc(/C=C/c2ccccc2)cc1=O",
    "GI50": "16.8 µM"
  },
  {
    "STRUCTURE_NOTATION": "N=C(N=C(N)N)N1CCN(c2ccncc2)CC1",
    "GI50": "> 1000 µM"
  }
]

Shifting focus to the compound that follows.
// GI50 value for CC1=C[C@H]2c3c(c(O)c(O)c4oc5ccccc5c(=O)c34)[C@H](c3cc(O)c(O)c4oc5ccccc5c(=O)c34)[C@H]2C(C)(C)C1 : 1.87 µM
